Assay: Test 2: Pharmacokinetic test in rats
Assay type: in vivo, rat
Details: rat, blood, po, 15 mg/kg, Rat-1, oral 15 mg/kg, 30 min; read-out: Blood concentration
metric_name: concentration at 0.5 h
Answer format: value, then unit.

Lab book: concentration at 0.5 h of CN(C(=O)[C@H](Cc1ccc(C(=N)NN)cc1)NS(=O)(=O)c1ccc2ccccc2c1)C1CCCC1 [Example 1] noted as 232 ng/mL

###

Experiment: Test 2: Pharmacokinetic test in dogs
Type: in vivo, dog
Settings: dog, blood, po, 10 mg/kg, dogs, oral 10 mg/kg, 45 min; read-out: Blood concentration, Average(+error)
metric_name: concentration at 0.75 h (ng/mL)
State the answer as a number, implicitly in ng/mL.

Looking up CN(C(=O)[C@H](Cc1ccc(C(=N)NN)cc1)NS(=O)(=O)c1ccc2ccccc2c1)C1CCCC1 [Example 1] , I see its concentration at 0.75 h listed as 1220

###

Assay: Test 2: Pharmacokinetic test in rats
Assay type: in vivo, rat
Details: rat, blood, po, 15 mg/kg, Rat-1, oral 15 mg/kg, 45 min; read-out: Blood concentration
metric_name: concentration at 0.75 h (ng/mL)
Numeric answer only, unit ng/mL assumed.

Lab note: measured concentration at 0.75 h of CN(C(=O)[C@H](Cc1ccc(C(=N)NN)cc1)NS(=O)(=O)c1ccc2ccccc2c1)C1CCCC1 was 145

###

Assay: Test 2: Pharmacokinetic test in dogs
Assay type: in vivo, dog
Conditions: dog, blood, po, 10 mg/kg, dogs, oral 10 mg/kg, 180 min; read-out: Blood concentration, Average(+error)
metric_name: concentration at 3 h
Put your answer as a value accompanied by its unit after it.

concentration at 3 h for CN(C(=O)[C@H](Cc1ccc(C(=N)NN)cc1)NS(=O)(=O)c1ccc2ccccc2c1)C1CCCC1 is 640 ng/mL

###

Assay: Test 2: Pharmacokinetic test in rats
Assay type: in vivo, rat
Conditions: rat, blood, iv, 10 mg/kg, Rat-1, i.v. 10 mg/kg, 60 min; read-out: Blood concentration
Experimental: Male rats and dogs were fasted for 24 hours and used as the experimental animals. […] Bloods were collected from the animals at given time intervals and then immediately mixed with methanol and zinc sulfate. Finally, the upper layer of the mixture was quantitatively analyzed at ultraviolet wavelength of 231 nm to measure the drug concentration in blood by HPLC.
metric_name: concentration at 1 h (ng/mL)
Response body: numeric value in ng/mL, unit text excluded.

The value of concentration at 1 h measured for the molecule CN(C(=O)[C@H](Cc1ccc(C(=N)NN)cc1)NS(=O)(=O)c1ccc2ccccc2c1)C1CCCC1 turned out to be 270

###

Assay: Test 2: Pharmacokinetic test in dogs
Type: in vivo, dog
Conditions: dog, blood; dogs, oral route; read-out: Bioavailability
Protocol: Male rats and dogs were fasted for 24 hours and used as the experimental animals. […] Bloods were collected from the animals at given time intervals and then immediately mixed with methanol and zinc sulfate. Finally, the upper layer of the mixture was quantitatively analyzed at ultraviolet wavelength of 231 nm to measure the drug concentration in blood by HPLC.
metric_name: bioavailability (%)
Return type: number; implicit unit %.

bioavailability recorded for this compound, CN(C(=O)[C@H](Cc1ccc(C(=N)NN)cc1)NS(=O)(=O)c1ccc2ccccc2c1)C1CCCC1 , is 61

###

Test: Test 2: Pharmacokinetic test in dogs
Format: in vivo, dog
Conditions: dog, blood, iv, 10 mg/kg, Dog-2, i.v. 10 mg/kg, 360 min; read-out: Blood concentration
Method: Male rats and dogs were fasted for 24 hours and used as the experimental animals. […] Bloods were collected from the animals at given time intervals and then immediately mixed with methanol and zinc sulfate. Finally, the upper layer of the mixture was quantitatively analyzed at ultraviolet wavelength of 231 nm to measure the drug concentration in blood by HPLC.
metric_name: concentration at 6 h

Record CN(C(=O)[C@H](Cc1ccc(C(=N)NN)cc1)NS(=O)(=O)c1ccc2ccccc2c1)C1CCCC1 [Example 1] . Reported concentration at 6 h: 92 ng/mL
